Reference source: patent US12473352

- target-system: T1, human IFP35 protein (human, UniProt P80217 1-286, limits assumed)
- T1 construct: also called interferon-induced protein 35; IFI35
- T1 chain: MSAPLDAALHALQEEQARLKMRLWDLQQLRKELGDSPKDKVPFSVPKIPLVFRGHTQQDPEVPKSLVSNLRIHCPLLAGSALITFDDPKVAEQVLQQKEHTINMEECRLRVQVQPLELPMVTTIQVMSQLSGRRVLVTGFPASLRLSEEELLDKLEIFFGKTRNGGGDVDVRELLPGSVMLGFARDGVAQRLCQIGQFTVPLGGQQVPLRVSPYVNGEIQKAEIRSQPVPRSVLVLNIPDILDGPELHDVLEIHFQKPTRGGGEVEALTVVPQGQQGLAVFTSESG
- procedure-summary: affinity kinetics (fortebio), antibody loaded
experimental-endpoint: Kd (nM)
Respond numerically; units are nM and should not be typed.

I'd like to know its Kd. The binder in question is AE001-8 (antibody, human IgG1, V domains shown, Human IgG1; CDR mutant of AE001-H3+L3; also called AE001-6Hc + 8Lc; AE001-6HC + 8LC) VH: QVQLVQSGAEVKKPGASVKVSCKASGYTFTNYGMNWVRQAPGQGLEWMGWINTYTGEPTVAQKFQGRFTFTLDTSTSTAYLELSSLRNEDTAVYFCARYGYSWAMDYWGQGTSVTVSS VL: DIQMTQSPSSLSASVGDRVTITCQASSSVSYMHWYQQKPGKAPKRLIYDTSKLASGVPSRFSGSGSGTDYTLTISSLQPEDIATYYCQQWSPLPPITFGAGTKLEIK 2.99
